Reference for the values: patent US20220064329A1

assayed_target: T1, recombinant human activated Factor VII (FVIIa) (human, UniProt P08709 61-212; P08709 213-466, ten glutamate residues of the Gla domain may be gamma-carboxylated)
T1 construct: chains tethered by a disulfide bond; also called Factor VIIa; rFVIIa
T1 sequence 1: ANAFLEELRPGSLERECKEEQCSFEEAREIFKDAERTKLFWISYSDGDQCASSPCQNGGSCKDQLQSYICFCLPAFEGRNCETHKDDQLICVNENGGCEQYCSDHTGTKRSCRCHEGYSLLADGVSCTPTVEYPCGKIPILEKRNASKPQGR
T1 sequence 2: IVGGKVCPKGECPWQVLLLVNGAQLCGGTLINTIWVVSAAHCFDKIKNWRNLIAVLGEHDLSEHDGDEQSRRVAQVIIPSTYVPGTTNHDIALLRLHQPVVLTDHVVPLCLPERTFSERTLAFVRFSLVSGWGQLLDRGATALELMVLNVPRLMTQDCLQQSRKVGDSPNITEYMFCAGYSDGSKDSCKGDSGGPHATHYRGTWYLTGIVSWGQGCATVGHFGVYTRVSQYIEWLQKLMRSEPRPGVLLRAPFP
test_description: BLI (Fortebio)
pKd: −log10 of the molar value.
measured_parameter: pKd

binder	assay_result
VH SEQ ID NO 610 / VL SEQ ID NO 382 (antibody, IgG4, V domains shown, humanized 11F2; IgG4 S228P/kappa) VH: QVQLQESGPGLVKPSQTLSLTCTVSGGSITSDSAWSWIRQPPGKGLEWIGYIQYSGSTNYNPSLKSRVTISVDTSKNQFSLKLSSVTAADTAVYYCARSVNYYGNSFAVGYWGQGTLVTVSS VL: EIVLTQSPATLSLSPGERATLSCRASQGLSDYLHWYQQKPGEAPRLLIKYASQPATGIPARFSGSGSGTDFTLTISSLEPEDFAVYYCQNGHSFPLTFGQGTKLEIK	7.77
VH SEQ ID NO 530 / VL SEQ ID NO 494 (antibody, IgG4, V domains shown, humanized 11F2; IgG4 S228P/kappa) VH: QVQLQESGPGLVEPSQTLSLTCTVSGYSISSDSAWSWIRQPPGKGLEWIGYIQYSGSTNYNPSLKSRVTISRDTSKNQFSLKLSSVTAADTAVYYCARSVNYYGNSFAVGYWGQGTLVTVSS VL: EIVLTQSPATLSLSPGERATLSCRASQGVSDYLHWYQQKPGQAPRLLIKYASQPATGIPARFSGSGSGTDFTLTISSLEPEDVAVYYCQNGHSFPLTFGQGTKLEIK	9.00
VH SEQ ID NO 618 / VL SEQ ID NO 438 (antibody, IgG4, V domains shown, humanized 11F2; IgG4 S228P/kappa) VH: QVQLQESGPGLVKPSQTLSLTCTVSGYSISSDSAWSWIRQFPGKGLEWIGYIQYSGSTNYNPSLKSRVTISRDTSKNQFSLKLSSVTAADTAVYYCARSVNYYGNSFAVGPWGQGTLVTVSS VL: EIVLTQSPATLSLSPGERATLSCRASQGVSDYLAWYQQKPGQAPRLLIKYASQPATGIPARFSGSGSGTDFTLTISSLEPEDVAVYYCQNGHSFPLTFGQGTKLEIK	7.47
